- Assayed target: acyl CoA: cholesterol acyltransferase (ACAT)
- Run description: Inhibiting activity against ACAT activity of rabbit's liver microsome
- Format: biochemical
- Test parameters: rabbit's liver microsome enzyme fraction, 1-14C-oleoyl CoA, 37° C.; read-out: Inhibiting activity against ACAT activity: IC (M) 50%
Measure name: IC50
Give the value; after it, write the unit.

// query Please give the measured IC50 for this compound: O=C(Nc1ccc(F)cc1F)N(Cc1cccc(CN(C(=O)Nc2ccc(F)cc2F)C2CCCCCC2)c1)C1CCCCCC1
// result 1.8e-08 M
